Biological target: Interleukin-1 receptor-associated kinase 4 (Homo sapiens) (UniProt Q9NWZ3)
Sequence (Q9NWZ3 whole entry): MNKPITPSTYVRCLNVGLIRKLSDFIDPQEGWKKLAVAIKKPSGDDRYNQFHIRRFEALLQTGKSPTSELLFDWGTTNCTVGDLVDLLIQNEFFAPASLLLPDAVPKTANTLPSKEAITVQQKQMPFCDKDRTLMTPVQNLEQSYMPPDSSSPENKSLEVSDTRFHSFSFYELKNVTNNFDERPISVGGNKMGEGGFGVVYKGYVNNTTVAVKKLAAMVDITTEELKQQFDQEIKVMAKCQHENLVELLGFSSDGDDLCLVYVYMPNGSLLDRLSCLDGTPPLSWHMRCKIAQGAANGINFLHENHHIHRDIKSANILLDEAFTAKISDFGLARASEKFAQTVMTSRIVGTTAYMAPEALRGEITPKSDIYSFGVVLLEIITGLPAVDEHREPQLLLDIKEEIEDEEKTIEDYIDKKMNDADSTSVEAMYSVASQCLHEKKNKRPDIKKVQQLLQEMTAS
Details: at 10 µM
RECORDED_ENDPOINT: residual activity (%)
Give just the numeric value; % need not be written.

Some compounds with known residual activity results, for comparison:
Cc1ccc(S(=O)(=O)/C=C/C#N)cc1 ... 92
Nc1cccc(-c2cc3c(Oc4cccc(O)c4)ncnc3[nH]2)c1 ... 69
Cn1nc2c3c(cccc31)C(=O)c1ccccc1-2 ... 47
CN(C)c1ccc(/C=C2\C(=O)Nc3ccccc32)cc1 ... 46
Ic1cccc(CSc2nnc(-c3ccncc3)o2)c1 ... 41

Identify residual activity associated with the compound `Oc1c2ccccc2c2c3c(cccc13)N=N2`
11

Identify residual activity associated with the compound `COc1ccc(CNc2nc(N(CCO)CCO)nc3c2ncn3C(C)C)cc1`
71

Identify residual activity associated with the compound `Cc1ccc(NC2=CC(=O)c3sc(C)nc3C2=O)cc1`
86

Origin of the recorded values: ChEMBL document CHEMBL2218924
